- method-description: Toxicity in ip dosed mouse
- Format: organism-based
- experimental-conditions: in vivo
Assignment: determine reported LD50 for the given molecules.
Answers are plain numbers, in mg/kg.

Batch request: LD50 per item, same order as input.
1. COc1ccc2c(c1O)-c1c(OC)c(OC)cc3c1[C@H](C2)[N+](C)(C)CC3.[I-]
2. COc1ccc2c(c1O)-c1c(O)c(OC)cc3c1[C@H](C2)[N+](C)(C)CC3 [MAGNOFLORINE]

*A*
1: 10; 2: 19.6

----------
- method-description: Toxicity in iv dosed mouse
- Format: organism-based
- experimental-conditions: in vivo
measured-parameter: LD50 (mg/kg)
Numbers only, in mg/kg.

*Q* Give the measured LD50 of COc1ccc2c(c1O)-c1c(OC)c(OC)cc3c1[C@H](C2)[N+](C)(C)CC3.[Cl-] .
*A* 2.2
